These entries and their values trace back to the supplement of paper PMC6555819.

Test system: PXR homodimer (NR concentration 270 nM)
Test: PBM binding z-score (relative to random genomic background probes); higher = stronger binding; sequences stand for … in GC…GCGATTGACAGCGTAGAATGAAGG
Binary call on PBM binding z-score: Satisfied from -0.3 upward, Not satisfied beneath that.

Check the entry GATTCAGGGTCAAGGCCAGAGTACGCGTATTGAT : does PBM binding z-score equal or exceed -0.3? Satisfied

Does the sequence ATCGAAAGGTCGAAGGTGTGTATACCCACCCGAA have recorded PBM binding z-score that is -0.3 or more? Satisfied

Tell me whether PBM binding z-score is at least -0.3 here: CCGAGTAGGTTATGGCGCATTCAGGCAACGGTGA Satisfied

API: above_or_equal(metric=PBM binding z-score, cutoff=-0.3) for item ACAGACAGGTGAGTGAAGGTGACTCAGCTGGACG Not satisfied

Does the reported PBM binding z-score for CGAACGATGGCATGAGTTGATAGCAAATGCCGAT fall at or above the -0.3 mark? Satisfied

Hi team, for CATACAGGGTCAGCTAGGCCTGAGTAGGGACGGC , is the recorded PBM binding z-score at or above -0.3? Not satisfied

Has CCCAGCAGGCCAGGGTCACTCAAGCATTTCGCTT a recorded PBM binding z-score greater than or equal to -0.3? Not satisfied

Check if PBM binding z-score >= -0.3 (inclusive). Item: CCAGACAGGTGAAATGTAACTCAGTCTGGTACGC Not satisfied

API: above_or_equal(metric=PBM binding z-score, cutoff=-0.3) for item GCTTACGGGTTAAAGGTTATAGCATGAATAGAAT Satisfied

Answer whether PBM binding z-score of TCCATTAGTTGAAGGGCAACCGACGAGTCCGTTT is greater than or equal to -0.3. Satisfied

Evaluate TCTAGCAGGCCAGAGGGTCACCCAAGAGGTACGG : PBM binding z-score at minimum -0.3? Not satisfied

Could you please find out whether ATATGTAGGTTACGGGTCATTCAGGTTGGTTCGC has PBM binding z-score that meets -0.3 or exceeds it? Satisfied

For this sequence, is measured PBM binding z-score -0.3 or higher? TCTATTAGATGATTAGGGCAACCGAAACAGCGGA Satisfied

Can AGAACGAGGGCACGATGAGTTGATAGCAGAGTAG be said to have PBM binding z-score at or above -0.3? Satisfied

Dear colleague, could you confirm whether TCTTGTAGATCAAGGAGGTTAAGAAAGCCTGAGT has PBM binding z-score at or above -0.3? Satisfied

Is PBM binding z-score for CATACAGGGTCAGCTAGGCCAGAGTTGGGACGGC at or above -0.3? Satisfied

Could you verify whether the entry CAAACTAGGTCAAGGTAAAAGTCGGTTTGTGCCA shows PBM binding z-score of no less than -0.3? Satisfied

Is it the case that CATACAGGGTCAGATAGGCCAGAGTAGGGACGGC has PBM binding z-score reaching or exceeding -0.3? Satisfied

Hi, just wondering whether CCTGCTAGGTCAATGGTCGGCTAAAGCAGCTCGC shows PBM binding z-score of -0.3 or higher. Not satisfied

Confirm if PBM binding z-score reported for the sequence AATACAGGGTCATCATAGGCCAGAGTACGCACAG is -0.3 or above. Satisfied

Item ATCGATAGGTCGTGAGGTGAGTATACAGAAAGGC with PBM binding z-score of -0.3 or above? Satisfied

Does the sequence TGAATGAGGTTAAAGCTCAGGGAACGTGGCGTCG have recorded PBM binding z-score that is -0.3 or more? Not satisfied

Determine whether this sequence has PBM binding z-score no lower than -0.3: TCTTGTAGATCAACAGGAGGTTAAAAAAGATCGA Satisfied

Decide: is the reported value of PBM binding z-score for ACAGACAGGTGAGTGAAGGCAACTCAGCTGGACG equal to or greater than -0.3? Not satisfied

Please indicate if the recorded PBM binding z-score for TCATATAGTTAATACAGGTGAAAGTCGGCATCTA meets or exceeds -0.3. Satisfied

* * *

Tested on: PPARg:RXRa 90nM:30nM, anti-RXR (NR concentration 90 nM, RXRa partner concentration 30 nM)
Assay: PBM binding z-score (relative to random genomic background probes); higher = stronger binding; sequences stand for … in GC…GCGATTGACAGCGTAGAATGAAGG
Readout: PBM binding z-score
Just the number, please, no unit attached.

Looking for the measured PBM binding z-score of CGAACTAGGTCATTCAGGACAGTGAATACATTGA , can you help? 5.66

For the sequence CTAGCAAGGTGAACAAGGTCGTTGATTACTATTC , what PBM binding z-score is on record? 0.796

Requested field: PBM binding z-score. Item: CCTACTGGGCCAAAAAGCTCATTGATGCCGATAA 0.564

Entry under review: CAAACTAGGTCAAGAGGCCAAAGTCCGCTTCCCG . Reported PBM binding z-score? 6.47

If you can, please state the reported PBM binding z-score value of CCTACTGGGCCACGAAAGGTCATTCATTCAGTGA . 4.42

Please give the measured PBM binding z-score for this sequence: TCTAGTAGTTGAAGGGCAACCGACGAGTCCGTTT 2.22

What value of PBM binding z-score has been recorded for this entry: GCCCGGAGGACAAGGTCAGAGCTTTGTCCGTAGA -0.158

Can you look up the measured PBM binding z-score of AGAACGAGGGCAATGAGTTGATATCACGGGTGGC for me? 0.833

Requested read-out: PBM binding z-score. Entry: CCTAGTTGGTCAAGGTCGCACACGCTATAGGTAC 0.958

Item under review: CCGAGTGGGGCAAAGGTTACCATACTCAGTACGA . Reported PBM binding z-score? 11

So what's the measured PBM binding z-score for this one? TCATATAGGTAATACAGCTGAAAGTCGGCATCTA 3.15

PBM binding z-score for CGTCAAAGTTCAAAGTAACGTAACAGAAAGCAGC ? 4.17

Dear colleague, I am looking for the recorded PBM binding z-score of the following sequence: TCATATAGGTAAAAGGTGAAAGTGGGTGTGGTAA 9.1

If you can, please state the reported PBM binding z-score value of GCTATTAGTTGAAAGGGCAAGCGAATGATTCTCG . 4.08

What does the record list as PBM binding z-score for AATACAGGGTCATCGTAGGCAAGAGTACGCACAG ? 4.97

Bench note: what PBM binding z-score did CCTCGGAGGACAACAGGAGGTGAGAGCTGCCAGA show? -0.93

# PBM binding z-score lookup, item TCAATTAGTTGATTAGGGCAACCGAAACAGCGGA 2.45

Report PBM binding z-score for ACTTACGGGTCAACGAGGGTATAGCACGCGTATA please. 3.63

# query: PBM binding z-score of entry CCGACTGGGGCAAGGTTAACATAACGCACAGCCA 4.38

May I ask what PBM binding z-score has been recorded for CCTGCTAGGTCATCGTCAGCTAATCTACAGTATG ? 1.47

Quick check: PBM binding z-score of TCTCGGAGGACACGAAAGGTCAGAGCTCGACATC ? 2.41

So what's the measured PBM binding z-score for this one? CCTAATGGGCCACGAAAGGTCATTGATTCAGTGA 3.4

May I ask what PBM binding z-score has been recorded for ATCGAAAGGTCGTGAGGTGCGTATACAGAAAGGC ? 2.4

Given the sequence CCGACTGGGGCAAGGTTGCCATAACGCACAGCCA , what is its reported PBM binding z-score? 2.2

Value lookup for PBM binding z-score; key = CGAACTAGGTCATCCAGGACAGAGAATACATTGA 5.81

What value of PBM binding z-score has been reported for the following sequence? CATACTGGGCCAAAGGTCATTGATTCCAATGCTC 11.1

* * *

System: RXRa DBDmut IVT, anti-RXR (DBD mutation: RXRa K156A/R161A, NR concentration 90 nM)
Experiment: PBM binding z-score (relative to random genomic background probes); higher = stronger binding; sequences stand for … in GC…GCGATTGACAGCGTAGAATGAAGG
Readout: PBM binding z-score

Find the recorded PBM binding z-score belonging to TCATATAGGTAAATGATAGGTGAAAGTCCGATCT and report it. 1.92

Given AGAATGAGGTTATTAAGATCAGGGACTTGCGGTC , state its recorded PBM binding z-score. 1.92

Please look up its PBM binding z-score: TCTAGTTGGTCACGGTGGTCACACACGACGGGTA 0.312

Data request, read-out PBM binding z-score, for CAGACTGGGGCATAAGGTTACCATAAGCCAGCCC 0.105

Param item = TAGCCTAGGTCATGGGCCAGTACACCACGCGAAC ; retrieve measured PBM binding z-score. 0.275

What value of PBM binding z-score has been recorded for this entry: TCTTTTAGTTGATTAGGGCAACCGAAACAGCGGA 1.2

Requested read-out: PBM binding z-score. Entry: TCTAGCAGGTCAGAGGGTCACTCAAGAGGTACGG 0.85

Fill in: PBM binding z-score of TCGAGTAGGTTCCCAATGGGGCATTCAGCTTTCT is ___ 0.269

If you can, please state the reported PBM binding z-score value of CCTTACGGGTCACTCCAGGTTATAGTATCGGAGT . 1.55

Entry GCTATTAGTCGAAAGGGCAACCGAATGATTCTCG : reported PBM binding z-score = ? 0.643

Any idea what its PBM binding z-score is? The sequence is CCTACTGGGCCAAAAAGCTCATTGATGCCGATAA -0.369

Item under review: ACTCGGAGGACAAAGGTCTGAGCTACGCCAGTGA . Reported PBM binding z-score? 0.352

Can you share its PBM binding z-score? I mean this sequence: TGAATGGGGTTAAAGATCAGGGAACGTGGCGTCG 1.95

PBM binding z-score lookup needed for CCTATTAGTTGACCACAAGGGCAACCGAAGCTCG , thanks. 0.553

Which PBM binding z-score is listed for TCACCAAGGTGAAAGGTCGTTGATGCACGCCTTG ? 1.09

Sample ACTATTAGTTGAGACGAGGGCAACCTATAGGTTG — what was its PBM binding z-score? 0.356

PBM binding z-score for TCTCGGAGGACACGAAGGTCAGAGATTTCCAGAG ? 0.78

What does the data say about its PBM binding z-score? Entry: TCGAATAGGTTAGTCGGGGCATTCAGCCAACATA 0.913

Any idea what PBM binding z-score was measured for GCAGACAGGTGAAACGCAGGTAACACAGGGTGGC ? -0.772

Reported PBM binding z-score, sequence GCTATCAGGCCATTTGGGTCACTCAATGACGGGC : ____ 0.754

So what's the measured PBM binding z-score for this one? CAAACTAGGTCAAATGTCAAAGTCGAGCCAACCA 2.58

PBM binding z-score for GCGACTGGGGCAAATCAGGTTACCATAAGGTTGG ? -0.00232

Tell me the measured PBM binding z-score of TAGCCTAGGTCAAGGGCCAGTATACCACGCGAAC , please. 0.34

Quick one: PBM binding z-score for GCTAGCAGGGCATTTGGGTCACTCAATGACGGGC ? 0.672

Sample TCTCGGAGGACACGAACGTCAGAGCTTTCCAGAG — what was its PBM binding z-score? 0.441

Looking for the measured PBM binding z-score of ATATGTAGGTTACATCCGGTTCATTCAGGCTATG , can you help? 1.95
